Data credit: PubChem BioAssay (NCI)

system: UO-31 renal; experiment: NCI tumour cell line growth inhibition, 48 h
log10(TGI) for assorted compounds
# log10 transformed; quantity=TGI; unit=µM

Worked cases, log10(TGI) given:
{"columns": ["compound", "log10(TGI)"],
 "data": [
  ["O=C1C(Cl)C(c2cccc(Br)c2)N1c1c(O)c(Cl)cc(Br)c1Cl (stereo unspecified)", 1.60],
  ["N#C/C(=C\\c1ccc([N+](=O)[O-])s1)c1nc2cc(Br)ccc2s1", -0.34],
  ["CN1CCN(CCCOc2ccc3nc(Nc4ccc(C(F)(F)F)c(Cl)c4)ccc3c2)CC1", 0.57],
  ["CCCCCCCCCCCCCCCCNc1ccc2c(c1)OCCOCCOCCOCCO2", 0.95]
]}

Need log10(TGI) of `CCCCCCCCCCCCCCC[C@@H](O)C[N+](C)(C)CCO` , thanks.
1.55

Need log10(TGI) of CCOC1=C2C(C)(CCC3[C@@]4(C)C=CC(=O)C(C)(C)C4CC(O)[C@@]23C)C(c2ccoc2)C1=O (stereo partly specified) , thanks.
1.46

====

system: ACHN renal; assay: NCI tumour cell line growth inhibition, 48 h; in the data active = GI50 below about 0.43 µM; inactive = the rest
Respond with a class label; see active, inactive

{"columns": ["compound", "assigned.class"],
 "data": [
  ["CCC[CH2][Ge]([CH2]CCC)([CH2]CCC)[O]C(=O)C(OC(C)=O)c1ccccc1 (configuration not stated)", "inactive"],
  ["COc1cc(/C=N/Nc2ncnc3c2cnn3Cc2ccccc2)ccc1O", "inactive"],
  ["COC(=O)c1cc(NC(=O)CN(CCN(CC(=O)O)CC(=O)Nc2ccc(O)c(C(=O)OC)c2)CC(=O)O)ccc1O", "inactive"],
  ["CS(=O)(=O)c1ccc(-c2[nH]c3ccc(F)cc3c2/C=N/NC(N)=S)cc1", "inactive"],
  ["N=C(N)c1ccc(-c2ccc(-c3ccc(Cl)c(Cl)c3)o2)nc1", "inactive"],
  ["COCO[C@@H]1CC2C=Nc3cc(OCc4ccccc4)c(OC)cc3C(=O)N2C1 (some centres not stated)", "active"]
]}

Next item in the queue.
// return assay outcome for `CCCN(CCC)c1ccc(/C=N/NC(=O)c2cccnc2)cc1`
inactive

====

test system: HL-60(TB) leukemia; assay: NCI tumour cell line growth inhibition, 48 h; in the data active means GI50 below about 0.43 µM; inactive means the rest
Respond with a class label; see t (active), f (inactive)

{"columns": ["compound", "target", "assigned.class"],
 "data": [
  ["O=C(Nc1ccc(Cl)cc1F)c1cc(Cl)ccc1O", "HL-60(TB) leukemia", "t"],
  ["CNc1ccc(C(=O)CC(O)CCC(C)C2OC(=O)CC(O)CC(=O)CC(O)CC(O)CC(O)CC(O)CC3(O)CC(O)C(C(=O)NCCc4ccccn4)C(CC(OC4OC(C)C(O)C(N)C4O)/C=C/C=C/C=C/C=C\\C=C/C=C/C=C/C2C)O3)cc1 (stereo not drawn)", "HL-60(TB) leukemia", "f"]
]}

Next item in the queue.
// return assay outcome for `Cc1nn(-c2ccccc2)c(C)c1/C=N/N1CCN(Cc2ccccc2)CC1`
f

====

test system: HCT-116 colon; experiment: NCI tumour cell line growth inhibition, 48 h; in the data active means GI50 below about 0.43 µM; inactive means the rest
Respond with a class label; see active, inactive

// return assay outcome for Nc1ncnc2c1c(C(=O)NO)cn2C1OC(CO)C(O)C1O (centres undefined)
active

// return assay outcome for CCCC(=O)Nc1ncnc2c1ncn2C1OC2COP(=O)(O)OC2C1OC(=O)CCC (centres undefined)
inactive

// return assay outcome for CCC[CH2][Ge]([CH2]CCC)([CH2]CCC)[O]C(=O)C(OC(C)=O)c1ccccc1 (centres undefined)
active

====

system: SK-MEL-5 melanoma; assay: NCI tumour cell line growth inhibition, 48 h
GI50 for assorted compounds

Need GI50 of CCCC(=O)Nc1ncnc2c1ncn2C1OC2COP(=O)(O)OC2C1OC(=O)CCC (stereo not given) , thanks.
> 1000 µM

Need GI50 of `COc1ccc2c([nH]c3cc(O)c(C)cc32)c1CC=C(C)C` , thanks.
8.04 µM

Need GI50 of `O=C(Nc1ccc(O)c(NS(=O)(=O)c2ccc(F)cc2)c1)c1ccc(-c2ccccc2)cc1` , thanks.
6.42 µM

Need GI50 of `N=C(N)c1ccc(-c2ccc(-c3ccc(Cl)c(Cl)c3)o2)nc1` , thanks.
1.74 µM

Need GI50 of `CN1CCN(CCCN2c3ccccc3Sc3ccc(C(F)(F)F)cc32)CC1` , thanks.
1.65 µM

Need GI50 of `CCc1cccc(CC)c1NC(=O)c1ccn2c1CCc1cnc(Nc3ccc(N4CCN(C)CC4)cc3OC)nc1-2` , thanks.
1.61 µM

Need GI50 of `[O]=[W](=[O])([OH])[OH]` , thanks.
> 100 µM

Need GI50 of `N#C/C(=C\c1ccc([N+](=O)[O-])s1)c1nc2cc(Br)ccc2s1` , thanks.
0.167 µM

Need GI50 of `COC(=O)c1cc(NC(=O)CN(CCN(CC(=O)O)CC(=O)Nc2ccc(O)c(C(=O)OC)c2)CC(=O)O)ccc1O` , thanks.
47.2 µM

Need GI50 of Nc1ncnc2c1c(C(=O)NO)cn2C1OC(CO)C(O)C1O (stereo not given) , thanks.
0.739 µM

Need GI50 of `COc1cc(/C=N/Nc2ncnc3c2cnn3Cc2ccccc2)ccc1O` , thanks.
12.2 µM

Need GI50 of `Cc1cn2c(/C=N/N=C(N)N)c(-c3cc(Cl)sc3Cl)nc2s1` , thanks.
0.905 µM

Need GI50 of `Cc1nc2sc(C(=O)Nc3cccc(Cl)c3C)c(N)c2cc1C(=O)c1ccccc1` , thanks.
0.278 µM

Need GI50 of `O=C(O)CP(=O)(c1ccccc1)c1ccccc1.O=C(O)CP(=O)(c1ccccc1)c1ccccc1.[Cd]` , thanks.
2.19 µM

Need GI50 of `Cc1cccc2c1NC(=O)C2(c1ccc(O)cc1)c1ccc(O)cc1` , thanks.
15.9 µM

====

tested on: CAKI-1 renal; test: NCI tumour cell line growth inhibition, 48 h
observable: GI50

Worked cases, GI50 given:
{"columns": ["molecule", "GI50"],
 "data": [
  ["CCNC(=O)c1ccc2c(c1)nc(-c1ccc(Cl)cc1)n2-c1cc(C(C)(C)C)[nH]n1", "2.84 µM"],
  ["N=C(N)c1ccc(-c2ccc(-c3ccc(Cl)c(Cl)c3)o2)nc1", "1.47 µM"],
  ["[O]=[W](=[O])([OH])[OH]", "> 100 µM"],
  ["O=C(O)CP(=O)(c1ccccc1)c1ccccc1.O=C(O)CP(=O)(c1ccccc1)c1ccccc1.[Cd]", "22.7 µM"],
  ["O=C(OC(CNc1c(C(=O)c2ccccc2)c(=O)n(Cc2ccccc2)c(=O)n1Cc1ccccc1)CN1CCCCC1)c1ccccc1 (stereo not drawn)", "18.3 µM"],
  ["COC(=O)c1cc(NC(=O)CN(CCN(CC(=O)O)CC(=O)Nc2ccc(O)c(C(=O)OC)c2)CC(=O)O)ccc1O", "32 µM"],
  ["O=C(Nc1cccc(-n2cc(-c3ccncc3)c(-c3ccc(O)c(Cl)c3)n2)c1)c1ccc(N2CCOCC2)c(C(F)(F)F)c1", "2.24 µM"]
]}

Now look at this entry.
Report GI50 for `COc1ccc2cc(C(=O)/C=C/c3ccco3)ccc2c1` tested on CAKI-1 renal.
38.7 µM

====

tested on: SNB-75 CNS; assay: NCI tumour cell line growth inhibition, 48 h
TGI for assorted molecules
Report the figure in µM without appending any unit label.

{"columns": ["molecule", "scale.unit", "TGI"],
 "data": [
  ["Cc1cccc2c1NC(=O)C2(c1ccc(O)cc1)c1ccc(O)cc1", "µM", 37.5],
  ["Cc1[nH]c2ccccc2c1C1=CC(=O)C=CC1=O", "µM", 34.7]
]}

Now look at this entry.
Need TGI of Cc1cc(=O)[nH]c(NN2C(Cl)C(=O)C2c2c(O)ccc3ccccc23)n1 (configuration not stated) , thanks.
39.2

====

TGI for assorted compounds
tested on: UO-31 renal; assay: NCI tumour cell line growth inhibition, 48 h

{"columns": ["compound", "target", "value.reported"],
 "data": [
  ["O=C(Nc1ccc(Cl)cc1F)c1cc(Cl)ccc1O", "UO-31 renal", "1.92 µM"],
  ["CCCCC1=CC1(C#N)[N+](=O)[O-] (stereo unspecified)", "UO-31 renal", "> 100 µM"],
  ["Cc1cc2c(=O)c3ccccc3oc2c(C#N)c1C", "UO-31 renal", "> 100 µM"],
  ["COC(=O)C(C(=O)C(=O)Nc1ccc([N+](=O)[O-])cc1)c1nc2cc(C)c(C)cc2[nH]c1=O (stereo unspecified)", "UO-31 renal", "> 100 µM"],
  ["O=c1nc(-c2ccccc2)scc1-c1ccccc1", "UO-31 renal", "> 100 µM"],
  ["Cc1[nH]c2ccccc2c1C1=CC(=O)C=CC1=O", "UO-31 renal", "23.2 µM"],
  ["CC(C)NCCCCCNc1cc(O)cc2cccnc12", "UO-31 renal", "> 100 µM"],
  ["COC(=O)C1=C(C)N(NC(=O)c2cccc(Cl)c2)C(C)(O)C12CCOC2=O (stereo unspecified)", "UO-31 renal", "> 100 µM"],
  ["c1ccc(C2=NN[C@H](c3cn(-c4ccccc4)nc3-c3ccccc3)C2)cc1", "UO-31 renal", "> 100 µM"],
  ["Cc1ccc(Cc2nn(C)c(=O)n2-n2cccc2)cc1", "UO-31 renal", "> 100 µM"]
]}

Now look at this entry.
Report TGI for N#Cc1c(-c2ccccc2)c(C#N)c(=S)n(C2OCC(O)C(O)C2O)c1N (stereo unspecified) tested on UO-31 renal.
> 100 µM
